Every entry's value here was drawn from PubChem BioAssay (NCI).

tested on: SNB-19 CNS; experiment: NCI-60 one-dose screen, 48 h (100 = growth as untreated, 0 = no growth, -100 = all killed); conditions: 10 µM unless noted
About 83,000 compounds went through this panel and 20% of them were active in at least one assay; those are over-represented in the sample as a whole. Calls of active or inactive are those of the source. The calls were made as follows: active = growth percent below 10; inactive = the rest.
// values below are reported growth
REPORTED PROPERTY: growth

>>> observed_measurement("CCCCCCCCCCCCCCCCCCNC(=O)[C@H]1CSC(c2ccc(OC)cc2O)N1 (stereo not given in full)")
"81.2% (inactive)"
>>> observed_measurement("COc1ccc(CNCCCN2C(=O)c3ccc4c5c(ccc(c35)C2=O)C(=O)N(CCCNCCCCNCCCN)C4=O)c(OC)c1OC")
"28% (inactive)"
>>> observed_measurement("O=C1CS/C(=N\\Nc2cc(=O)[nH]c3ccccc23)N1c1ccccc1")
"90.7% (inactive)"
>>> observed_measurement("COc1ccc(Nc2ncccc2C(=O)NCc2cn(Cc3cccc(Oc4ccccc4)c3)nn2)cc1")
"61.2% (inactive)"
>>> observed_measurement("O=C(/C=C\\c1cccc([N+](=O)[O-])c1)/C=C/c1cccc([N+](=O)[O-])c1")
"94.5% (inactive)"
>>> observed_measurement("c1ccc(-c2cn(-c3ccccc3)c(-c3ccccc3)n2)cc1")
"85.6% (inactive)"
>>> observed_measurement("COc1cc(-c2nn(-c3cccc(NC(=O)Nc4cccc(C(F)(F)F)c4)c3)cc2-c2ccncc2)ccc1Cl")
"23.5% (inactive)"
>>> observed_measurement("COc1ccc(-c2nc(-c3nc4cc(C)c(C)cc4[nH]3)cc3c2[nH]c2ccccc23)cc1")
"82.7% (inactive)"
>>> observed_measurement("Cc1[nH]c2ccc(F)cc2c1CCNC(=O)C1CCN(C(=O)c2ccccc2)C1 (stereo not given)")
"93.2% [25 µM] (inactive)"
>>> observed_measurement("O=S1(=O)CCC(N(/N=C/c2ccco2)c2ccccc2)C1 (stereo not given)")
"104% (inactive)"
>>> observed_measurement("NC1N=C(SCC(=O)N2CCN(c3cc4c(cc3F)c(=O)c(C(=O)O)cn4C3CC3)CC2)NC(=O)/C1=C/c1ccc(Cl)cc1 (stereo not given)")
"99.7% (inactive)"
>>> observed_measurement("COc1ccc(/C=C2\\Oc3cc(OCCCN4CCCC4)ccc3C2=O)cc1")
"92.4% (inactive)"
>>> observed_measurement("COc1cccc(/C=C2\\Oc3cc(OCCCN4CCCC4)ccc3C2=O)c1")
"87.9% (inactive)"
>>> observed_measurement("COc1cccc(-c2nc3sccn3c2-c2ccnc(NCCCNS(=O)(=O)c3ccc(C(F)(F)F)cc3)c2)c1")
"69.4% (inactive)"
>>> observed_measurement("Cc1ccc(S(=O)(=O)/C(=C\\c2ccc(Cl)cc2)C(=O)c2ccccc2)cc1")
"95.7% (inactive)"
>>> observed_measurement("COc1ccc(/C(C#N)=C/c2cc(OC)c(OC)c(OC)c2)cc1")
"66.3% (inactive)"
>>> observed_measurement("O=S(=O)(NCCNc1nccc(-c2c(-c3ccc(O)cc3)nc3sccn23)n1)c1cccc2ccccc12")
"99.7% (inactive)"
>>> observed_measurement("C=C1CCC2C3(C)COC(c4ccc(N(C)C)cc4)OC3CCC2(C)C1C/C=C1/C(=O)OCC1O (stereo not given)")
"85.9% (inactive)"
>>> observed_measurement("Nc1cc2c(cc1C(=O)c1cccc(F)c1)OCCO2")
"97.1% (inactive)"
>>> observed_measurement("CCOC(=O)c1ccc2c(c1)c1c(C)c3cccnc3c(C)c1n2C")
"56.4% (inactive)"
